Recorded Population Healthy Nuclei (%) by entry
Test system: U2OS
ASSAY: Multiplex assay against U2OS
Assay type: toxicity, cell-based
EXPERIMENTAL PARAMETERS: human, 24 h, 1 µM, compound concentration 1 uM, replicate 2
ASSAY ENDPOINT: Population Healthy Nuclei (%)

[
  {
    "COMPOUND": "COc1c(Nc2ccc(S(C)(=O)=O)nc2C)ncnc1OC1CCN(C(=O)OC(C)C)CC1",
    "OBSERVED": "79%"
  },
  {
    "COMPOUND": "COCCCN1CCC(NC(=O)c2cc(Cl)c(N)c3c2OCC3)CC1 [PRUCALOPRIDE]",
    "OBSERVED": "69%"
  },
  {
    "COMPOUND": "CCc1nn2c(C)cc(C)nc2c1Cc1ccc(-c2nnc(C3CCNCC3)o2)cc1",
    "OBSERVED": "80%"
  },
  {
    "COMPOUND": "Cc1cc(-c2ccc3c(c2)CC[C@H]3N2CC3(CCN(C(=O)Cc4cn5cc(C)sc5n4)CC3)C2)ncn1",
    "OBSERVED": "76%"
  },
  {
    "COMPOUND": "COc1cc(OC2CCN(C(C)=O)CC2)ccc1C(=O)N1CCC(N2C(=O)OCc3ccccc32)CC1",
    "OBSERVED": "68%"
  },
  {
    "COMPOUND": "COc1cc2nc(N3CCN(C(=O)c4ccco4)CC3)nc(N)c2cc1OC.Cl [PRAZOSIN HYDROCHLORIDE]",
    "OBSERVED": "74%"
  },
  {
    "COMPOUND": "C=CCN1C[C@H](C(=O)N(CCCN(C)C)C(=O)NCC)C[C@@H]2c3cccc4[nH]cc(c34)C[C@H]21",
    "OBSERVED": "83%"
  },
  {
    "COMPOUND": "COc1ccc2[nH]c(I)c(CCNC(C)=O)c2c1",
    "OBSERVED": "78%"
  }
]
